target: Dual specificity tyrosine-phosphorylation-regulated kinase 1A (Homo sapiens) (UniProt Q13627); settings: at 0.1 µM
Description: GSK_PKIS: DYRK1A mean inhibition at 0.1 uM [Nanosyn]
endpoint_name: inhibition (%)
Give bare numbers, in %.

CS(=O)(=O)Nc1ccc(N/C=C2\C(=O)Nc3ccccc32)cc1
0.92

Batch request: inhibition per item, same order as input.
1. CN(C)c1cc2c(Nc3ccc4nc(Cc5ccccc5)[nH]c4c3)ncnc2cn1
2. Cn1cc(C=C2C(=O)Nc3cccnc32)c2ccccc21
3. COc1cc(C)c(NC(=O)CN(C)C)cc1Nc1nc(Nc2cccc(F)c2C(N)=O)c2cc[nH]c2n1
4. COc1cc2ncn(-c3cc(O[C@H](C)c4ccccc4Cl)c(C(N)=O)s3)c2cc1OC

Ans:
4.46
2.68
1.71
-0.27

---

molecular target: Macrophage colony-stimulating factor 1 receptor (Homo sapiens); conditions: at 1 µM;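 further: mean inhibition of FMS, from the GSK PKIS screening set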
Kindly state inhibition for each of the entries shown.
One number for each entry, in %.

Batch request: inhibition per item, same order as input.
1. CCn1c(-c2nonc2N)nc2c(C#CC(C)(C)O)nc(CN3CCCC3)cc21
2. Nc1nc(-c2ccccn2)c(-c2ccc3ncccc3n2)s1

Ans:
1. 2.57
2. 4.58

---

molecular target: Insulin-like growth factor 1 receptor (Homo sapiens) (UniProt P08069); settings: at 1 µM;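 further: each value is a mean percent inhibition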
Sequence (P08069 31-736 limits assumed): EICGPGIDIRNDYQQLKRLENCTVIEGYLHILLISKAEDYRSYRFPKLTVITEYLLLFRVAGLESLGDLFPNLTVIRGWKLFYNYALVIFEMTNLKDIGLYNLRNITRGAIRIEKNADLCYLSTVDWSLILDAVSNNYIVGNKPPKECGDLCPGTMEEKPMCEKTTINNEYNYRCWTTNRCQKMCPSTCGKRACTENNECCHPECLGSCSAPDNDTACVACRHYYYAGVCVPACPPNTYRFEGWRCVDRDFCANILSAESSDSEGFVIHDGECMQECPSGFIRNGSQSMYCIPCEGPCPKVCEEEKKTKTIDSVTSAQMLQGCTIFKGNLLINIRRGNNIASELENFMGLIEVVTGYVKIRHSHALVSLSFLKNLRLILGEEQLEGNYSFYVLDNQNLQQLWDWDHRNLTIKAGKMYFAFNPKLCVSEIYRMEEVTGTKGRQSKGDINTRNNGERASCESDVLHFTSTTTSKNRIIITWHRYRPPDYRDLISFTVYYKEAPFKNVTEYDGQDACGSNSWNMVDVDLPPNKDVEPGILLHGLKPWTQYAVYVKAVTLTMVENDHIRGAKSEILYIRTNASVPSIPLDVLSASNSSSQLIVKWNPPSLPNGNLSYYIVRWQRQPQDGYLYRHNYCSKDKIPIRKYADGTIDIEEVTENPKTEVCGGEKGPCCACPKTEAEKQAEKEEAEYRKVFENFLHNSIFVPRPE
Sequence (P08069 741-1367 limits assumed): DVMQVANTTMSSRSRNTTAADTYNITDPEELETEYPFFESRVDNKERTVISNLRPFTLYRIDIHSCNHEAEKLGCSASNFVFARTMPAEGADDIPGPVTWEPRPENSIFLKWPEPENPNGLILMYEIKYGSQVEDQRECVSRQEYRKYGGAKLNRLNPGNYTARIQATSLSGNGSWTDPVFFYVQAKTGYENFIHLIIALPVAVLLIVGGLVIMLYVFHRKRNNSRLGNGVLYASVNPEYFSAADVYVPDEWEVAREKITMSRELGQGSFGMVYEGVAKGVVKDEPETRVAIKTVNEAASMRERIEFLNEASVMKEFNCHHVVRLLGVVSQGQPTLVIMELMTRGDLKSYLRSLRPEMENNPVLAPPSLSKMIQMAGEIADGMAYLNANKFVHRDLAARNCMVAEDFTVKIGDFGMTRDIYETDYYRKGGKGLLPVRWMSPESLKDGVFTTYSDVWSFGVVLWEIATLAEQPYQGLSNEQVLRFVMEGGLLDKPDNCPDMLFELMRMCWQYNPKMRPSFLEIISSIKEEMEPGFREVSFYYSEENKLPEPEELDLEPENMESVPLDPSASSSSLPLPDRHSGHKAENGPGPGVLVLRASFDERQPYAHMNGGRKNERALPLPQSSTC
Kindly state inhibition for each of the entries shown.
Give bare numbers, in %.

As a guide, the following entries are already answered.
COc1ccccc1Nc1ncc(-c2ccccc2)o1
1.64
NS(=O)(=O)c1cccc(-c2ccc3c(NC(=O)C4CC4)n[nH]c3c2)c1
3.51

Batch request: inhibition per item, same order as input.
1. CC(C)=Cc1cccc2c1/C(=N/Nc1ccc(S(N)(=O)=O)cc1)C(=O)N2
2. CCc1cccc(NC(=O)Nc2ccc(Oc3ccc4nc(NC(=O)OC)[nH]c4c3)cc2)c1
3. CCCN1CCC=C(c2ccc(Nc3nc(Nc4ccccc4C(N)=O)c4cc[nH]c4n3)c(C)c2)C1
4. O=C1NC(=O)C(c2cccc(Cl)c2)=C1Nc1ccc(O)c(Cl)c1
5. Cn1cc(C=C2C(=O)Nc3cccnc32)c2ccccc21
6. CCN1CCC(CC(=O)Nc2n[nH]c3nc(-c4cccs4)c(Br)cc23)CC1
7. Cc1nnc(-c2ccc(C)c(-c3ccc(C(=O)Nc4cccc(C#N)c4)cc3)c2)o1

Ans:
[8.58, 2.45, 99.2, 2.43, 8.98, 1.31, 0.79]

Batch request: inhibition per item, same order as input.
1. CS(=O)(=O)CCN(CC#N)Cc1ccc(-c2ccc3ncnc(Nc4ccc(OCc5cccc(F)c5)c(Cl)c4)c3c2)o1
2. COc1ccc(-c2nn3ncccc3c2-c2ccnc(Nc3ccc(Cl)c(C(F)(F)F)c3)n2)cc1

Ans:
1. -4.22
2. -0.08

---

target: Casein kinase I isoform gamma-1 (Homo sapiens) (UniProt Q9HCP0); conditions: at 1 µM;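 further: reported value is the mean inhibition of CK1 gamma-1 kinase activity across replicate measurements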
Sequence (Q9HCP0 whole entry, looked up, canonical isoform): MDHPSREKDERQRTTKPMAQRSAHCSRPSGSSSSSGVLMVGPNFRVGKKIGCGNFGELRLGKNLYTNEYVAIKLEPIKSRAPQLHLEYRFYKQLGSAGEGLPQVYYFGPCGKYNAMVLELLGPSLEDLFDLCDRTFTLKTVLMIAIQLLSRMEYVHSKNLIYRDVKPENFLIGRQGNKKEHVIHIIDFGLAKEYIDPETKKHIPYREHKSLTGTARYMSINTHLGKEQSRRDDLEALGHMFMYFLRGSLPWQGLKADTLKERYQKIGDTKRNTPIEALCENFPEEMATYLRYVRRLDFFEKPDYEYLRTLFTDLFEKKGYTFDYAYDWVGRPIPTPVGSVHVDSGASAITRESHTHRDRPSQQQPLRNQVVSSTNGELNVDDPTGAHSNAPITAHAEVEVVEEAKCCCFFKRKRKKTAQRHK
endpoint_name: inhibition (%)
One number for each entry, in %.

CCn1c(-c2nonc2N)nc2c(C#CC(C)(C)O)nc(OC[C@@H](N)c3ccccc3)cc21
2.42
CS(=O)(=O)CCNCc1ccc(-c2ccc3ncnc(Nc4ccc(OCc5cccc(F)c5)c(C(F)(F)F)c4)c3c2)o1
4.58
CN1CCC(C(=O)Nc2n[nH]c3nnc(-c4ccccc4)cc23)CC1
5.43
Nc1nc(-c2ccc3c(c2)C(=Cc2cc(Br)c(O)c(Br)c2)C(=O)N3)cs1
-1.14
NS(=O)(=O)c1ccc(N/N=C2\C(=O)Nc3ccc(C(=O)NCCc4c[nH]cn4)cc32)cc1
9.85
CC(=O)Nc1cccc(C#Cc2cncnc2Nc2ccc(OCc3cccc(F)c3)c(Cl)c2)n1
-2.35
COc1cc2ncn(-c3cc(OCc4ccccc4C(F)(F)F)c(C(N)=O)s3)c2cc1OC
2.06
Nc1nc(-c2ccccn2)c(-c2ccc3ncccc3n2)s1
12.6
Cn1cc(C=C2C(=O)Nc3cccnc32)c2ccccc21
4.56
COc1ccc(-c2coc3ncnc(N)c23)cc1
4.94

Batch request: inhibition per item, same order as input.
1. COc1cccc(-n2ncc3c(N/N=C/c4cccc(F)c4)ncnc32)c1
2. CNC(=O)c1cncc(/C=C/c2c(Cl)cccc2Cl)c1
3. CC(C)=Cc1cccc2c1/C(=N/Nc1ccc(S(N)(=O)=O)cc1)C(=O)N2

Ans:
[-0.75, 6.18, 1.12]

Batch request: inhibition per item, same order as input.
1. O=C1NC(=O)C(c2cccc(Cl)c2)=C1Nc1ccc(O)c(Cl)c1
2. COc1cc(C=NNc2ncnc3c2cnn3-c2ccccc2)ccc1O

Ans:
1. 1.3
2. 3.26
